Data origin: patent US20250186620A1

MEASUREMENT_TARGET: the molecule itself
EXPERIMENT: homotypic FETCH screen
PARAMETER_MEASURED: binding result

| PROTEIN | MEAS_VALUE |
| --- | --- |
| Cx34.7 mutant Y78V (Morone americana) (other, Extracellular loop mutant of the screening library; also called Cx34.7 Y78V; not shown: C-terminal fluorescent protein fusion (mEmerald or RFP670 in FETCH)) MGEWTILERLLEAAVQQHSTMIGRILLTVVVIFRILIVAIVGETVYEDEQAMFICNTLQPGCNQACYDKAFPISHIRVWVFQIILVCTPSLCFITYSVHQSAKQKDRRYSFLYPIMERDYGGRDGARKLRNINGILVQHGGDGGGGKEEPDCLEVKEIPNAPRGLTHGKSSKVRRQEGISRFYIIQVVFRNALEIGFLAGQYFLYGFSVPGIFECDRYPCLKEVECYVSRPTEKTVFLVFMFAVSGICVVLNLAELNHLGWRKIKAAIRGVQARRKSICEIRKKDMAHLSQPPNLGRTQSSESAYV | no binding |
| Cx35 mutant Y78T (Morone americana) (other, Extracellular loop mutant of the screening library; also called Cx35 Y78T; not shown: C-terminal fluorescent protein fusion (mEmerald or RFP670 in FETCH)) MGEWTILERLLEAAVQQHSTMIGRILLTVVVIFRILIVAIVGETVYDDEQTMFVCNTLQPGCNQACYDKAFPISHIRTWVFQIIMVCTPSLCFITYSVHQSAKQKERRYSTVYLTLDKDQDSLKRDESKKIKNTIVNGVLQNTENSTKEAEPDCLEVKEIPNSAMRTTKSKMRRQEGISRFYIIQVVFRNALEIGFLVGQYFLYGFNVPSVYECDRYPCIKDVECYVSRPTEKTVFLVFMFAVSGFCVVLNLAELNHLGWRKIKTAVRGVQARRKSIYEIRNKDLPRMSVPNFGRTQSSDSAYV | no binding |
| Cx34.7 mutant Y78S (Morone americana) (other, Extracellular loop mutant of the screening library; also called Cx34.7 Y78S; not shown: C-terminal fluorescent protein fusion (mEmerald or RFP670 in FETCH)) MGEWTILERLLEAAVQQHSTMIGRILLTVVVIFRILIVAIVGETVYEDEQAMFICNTLQPGCNQACYDKAFPISHIRSWVFQIILVCTPSLCFITYSVHQSAKQKDRRYSFLYPIMERDYGGRDGARKLRNINGILVQHGGDGGGGKEEPDCLEVKEIPNAPRGLTHGKSSKVRRQEGISRFYIIQVVFRNALEIGFLAGQYFLYGFSVPGIFECDRYPCLKEVECYVSRPTEKTVFLVFMFAVSGICVVLNLAELNHLGWRKIKAAIRGVQARRKSICEIRKKDMAHLSQPPNLGRTQSSESAYV | no binding |
| Cx34.7K222Q (Morone americana Cx34.7 mutant K222Q) (other, Extracellular loop mutant of the screening library; not shown: C-terminal fluorescent protein fusion (mEmerald or RFP670 in FETCH)) MGEWTILERLLEAAVQQHSTMIGRILLTVVVIFRILIVAIVGETVYEDEQAMFICNTLQPGCNQACYDKAFPISHIRYWVFQIILVCTPSLCFITYSVHQSAKQKDRRYSFLYPIMERDYGGRDGARKLRNINGILVQHGGDGGGGKEEPDCLEVKEIPNAPRGLTHGKSSKVRRQEGISRFYIIQVVFRNALEIGFLAGQYFLYGFSVPGIFECDRYPCLQEVECYVSRPTEKTVFLVFMFAVSGICVVLNLAELNHLGWRKIKAAIRGVQARRKSICEIRKKDMAHLSQPPNLGRTQSSESAYV | no binding |
